Experiment: Clearance in ICR mouse at 3 mg/kg, iv measured after 0.033 to 24 hrs by LC/MS/MS analysis
Type: ADME, organism-based
Conditions: in vivo
measured_endpoint: clearance (mL/min/kg)

smiles_repr: COc1ncc(-c2cc(OCCCCCCC(=O)NO)c3ncnc(C)c3c2)cc1F
measured_endpoint: clearance
readout_value: 90
--
smiles_repr: COc1ccc(-c2cc(OCCN(C)c3ncc(C(=O)NO)cn3)c3ncnc(C)c3c2)cn1
measured_endpoint: clearance
readout_value: 352

---

Test: Cmax in ICR mouse at 3 mg/kg, iv measured after 0.033 to 24 hrs by LC/MS/MS analysis
Type: ADME, organism-based
Design: dose 3 mg/kg, route intravenous
Conditions: in vivo
measured_endpoint: Cmax

smiles_repr: COc1ccc(-c2cc(OCCN(C)c3ncc(C(=O)NO)cn3)c3ncnc(C)c3c2)cn1
readout_value: 417 ng/mL
//
smiles_repr: COc1ncc(-c2cc(OCCCCCCC(=O)NO)c3ncnc(C)c3c2)cc1F
readout_value: 3050 ng/mL
